- Tested on: Snapbeans
- TEST_DETAILS: Postemergence herbicidal activity, % control of plant growth
- Type: in vivo
- CONDITION_CONTEXT: post-emergence, 264 h, 8 lb/acre, about 11 days
Parameter pest or weed control at 8966.8 g/ha: see the listing below.
// return the numeric value with its unit appended

Reference set (10 entries):
COMPOUND	pest or weed control at 8966.8 g/ha
O=c1[nH]c2cccnc2c(=O)n1Cc1ccccc1	0%
CCCCn1c(=O)[nH]c2cccnc2c1=O	100%
O=c1[nH]c2cccnc2c(=O)n1C1CC1	0%
O=c1[nH]c2cccnc2c(=O)n1C1CCCCC1	80%
O=c1[nH]c2nccnc2c(=O)n1C1CCCCCCC1	100%
CCn1c(=O)[nH]c2cccnc2c1=O	80%
CCC(C)n1c(=O)[nH]c2nccnc2c1=O (stereo not drawn)	20%
CCCCn1c(=O)[nH]c2nccnc2c1=O	0%
CCCn1c(=O)[nH]c2cccnc2c1=O	100%
CCCCC(CC)Cn1c(=O)[nH]c2cccnc2c1=O (stereo not drawn)	0%

Incoming: Value wanted: pest or weed control at 8966.8 g/ha (Snapbeans) of entry CCC(C)n1c(=O)[nH]c2cccnc2c1=O (stereo not drawn)
Outgoing: 100%

Incoming: Form: Entry = C=CCn1c(=O)[nH]c2cccnc2c1=O | System = Snapbeans | pest or weed control at 8966.8 g/ha = ____
Outgoing: 100%
